Target: Rac GTPase-activating protein 1 (Homo sapiens) (UniProt Q9H0H5)
Sequence (Q9H0H5 whole entry, looked up): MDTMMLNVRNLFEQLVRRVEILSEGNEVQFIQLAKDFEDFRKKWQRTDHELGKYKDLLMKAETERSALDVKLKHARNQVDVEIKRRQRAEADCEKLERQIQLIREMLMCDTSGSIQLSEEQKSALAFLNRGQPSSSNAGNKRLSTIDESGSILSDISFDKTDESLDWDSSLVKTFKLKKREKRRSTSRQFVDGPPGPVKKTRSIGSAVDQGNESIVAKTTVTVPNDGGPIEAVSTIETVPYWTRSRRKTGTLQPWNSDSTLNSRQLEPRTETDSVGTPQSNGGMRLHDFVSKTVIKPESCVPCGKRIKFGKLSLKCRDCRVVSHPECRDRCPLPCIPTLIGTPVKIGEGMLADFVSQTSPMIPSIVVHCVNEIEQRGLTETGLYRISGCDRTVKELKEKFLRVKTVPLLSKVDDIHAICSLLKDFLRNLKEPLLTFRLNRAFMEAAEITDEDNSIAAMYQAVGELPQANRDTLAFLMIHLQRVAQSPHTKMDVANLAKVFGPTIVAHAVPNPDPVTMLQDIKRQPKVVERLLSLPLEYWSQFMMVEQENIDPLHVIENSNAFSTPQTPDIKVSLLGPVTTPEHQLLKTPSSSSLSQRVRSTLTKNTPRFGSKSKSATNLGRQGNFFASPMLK
Test: blockers of MgcRacGAP-driven Rac1 GTP hydrolysis – biochemical, ADP Hunter fluorescence, primary and confirmatory, confirmation (AID 624330);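 further: fluorescence reports GDP produced by GAP-driven GTP hydrolysis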
Settings: MgcRacGAP-stimulated Rac1 GTP hydrolysis, at 30 µM, stronger effect = higher value, GST-tagged Rac1 F28L mutant substrate
In all, about 340,000 compounds went through this assay and about 2,100 (0.62%) were called active. A selection follows. Measured potencies and affinities stand elsewhere.
inhibition overview

| compound | inhibition, % |
| --- | --- |
| O=[N+]([O-])c1ccc(N=Nc2ccc(O)cc2O)cc1 | 7.64 |
| COc1cc(NC(C)CCCN)c2ncccc2c1 (centres undefined) | -2.49 |
| COc1ccc(Br)cc1C(=O)Nc1cccc(-c2nnc(-c3ccco3)o2)c1 | -5.03 |
| COc1cc(NC(=O)c2cccnc2SC)cc(OC)c1OC | 9.4 |
| COc1cc(/C=N/Nc2ccccc2)ccc1O | 13 |
| COc1ccc(/C=N/Nc2cc(=O)n(C)c(=O)n2C)cc1OC | 1.57 |
| O=C(CN1CCN(Cc2cccc(C(F)(F)F)c2)CC1)NCC(=O)Nc1ccc(F)c(F)c1F | 3.75 |
| COc1ccc(NC(=O)CCCc2ccccc2)c(OC)c1 | 6.75 |
| COc1ccc(C)cc1S(=O)(=O)N(C)CC(=O)N1CCC(C(N)=O)CC1 | -7.33 |
| COc1ccc(C(=O)CC(=O)C(=O)Nc2ccc(OC)c(Cl)c2)cc1 | 5.32 |
| Nc1ccc(NC(=O)c2cccs2)cc1 | 24 |
| CCCCOc1ccc(C(CC(=O)NC)C(=O)O)cc1 (centres undefined) | 1.11 |
| Oc1ccc(N=Nc2ccc(Br)cc2)c(O)c1 | 12.2 |
| Cc1noc(C)c1NC(=O)NCCN1CCN(Cc2ccccc2)CC1 | 11.3 |
| CC(C(=O)Nc1ccc(F)c(F)c1F)N1CCCCCC1 (centres undefined) | 9.76 |
| O=[N+]([O-])c1ccccc1/C=N/n1c(-c2ccccc2)n[nH]c1=S | 16.3 |
| Cc1n[nH]c(=O)n(N=Cc2cccs2)c1=O | 7.77 |
| COc1cc(NC(C)CCCN)c2ncccc2c1Oc1ccccc1 (centres undefined) | 1.99 |
| COc1cc(N)c2ncccc2c1Cl | 7.55 |
| CC1CCCN(C(=O)c2cc(S(=O)(=O)N3CCCCC3)c[nH]2)C1 (centres undefined) | -0.16 |
| Cc1ccc(-c2n[nH]c(=S)n2/N=C/c2sccc2C)cc1 | 5.68 |
| Cc1ccsc1/C=N/n1c(-c2cc(-c3ccccc3)n[nH]2)n[nH]c1=S | 11.8 |
| CC12CC(NC(=O)N1c1cccc(C(=O)N3CCN(c4ccccc4F)CC3)c1)c1ccccc1O2 (centres undefined) | 4.9 |
| Nc1nnnn1/N=C/c1cccc(O)c1 | 5.38 |

###

inhibition overview
Molecular target: Rac GTPase-activating protein 1 (Homo sapiens) (UniProt Q9H0H5)
Assay: blockers of MgcRacGAP-driven Rac1 GTP hydrolysis – biochemical, ADP Hunter fluorescence, primary and confirmatory, confirmation (AID 624330);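 further: fluorescence reports GDP produced by GAP-driven GTP hydrolysis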
Conditions: MgcRacGAP-stimulated Rac1 GTP hydrolysis, at 30 µM, stronger effect = higher value, GST-tagged Rac1 F28L mutant substrate
In all, about 340,000 compounds went through this assay and about 2,100 (0.62%) were called active. Only a sample is shown. Potency and affinity values are given separately.

| compound | reading_unit | inhibition |
| --- | --- | --- |
| Cc1ccnc(NC(=O)Cn2c(=O)oc3ccccc32)c1 | % | 6.21 |
| O=C(C1COc2ccccc2O1)N1CCN(c2nc3c(F)cc(F)cc3s2)CC1 (configuration not stated) | % | 1.62 |
| CCN(Cc1ccncc1)C(=O)c1cccs1 | % | -1.7 |
| O=C(c1ccccc1Cc1ccccc1)N1CCN(S(=O)(=O)c2ccccc2Br)CC1 | % | 3.3 |
| COc1cc(/C=N/NC(=O)c2cccc(C(=O)N/N=C/c3ccc(O)c(OC)c3)n2)ccc1O | % | 9.56 |
| COc1cc(OC)c(C(=O)Nc2ccncc2)cc1OC | % | 6.31 |
| COc1ccc(NC(=S)c2ccc(N(C)C)cc2)cc1 | % | 6.87 |
| CCC(C)[C@H](NC(=O)N1CCN(C)CC1)C(=O)OC (some centres not stated) | % | 3.84 |
| Cc1[nH]ccc(=O)c1OCc1ccc(Cl)cc1 | % | 8.17 |
| O=C(Cn1c(-c2ccccc2)noc1=O)N1CCC(Cc2ccccc2)CC1 | % | 5.27 |
| CC(=O)N1CCN(S(=O)(=O)c2cccc(C(=O)NCCc3ccc(Cl)cc3)c2)CC1 | % | 5.57 |
| CC(C)(Oc1ccc(Cl)cc1)C(=O)N(Cc1ccccc1)c1ccccn1 | % | 1.14 |
| Cc1cc(NS(C)(=O)=O)c(=O)n(Cc2c(F)cccc2Cl)c1 | % | -0.27 |
| COc1cc(/C=N/Nc2nc(Nc3ccccc3)nc(N3CCOCC3)n2)ccc1OC(=O)c1ccco1 | % | 8.66 |
| O=C(c1cccc(S(=O)(=O)N2CCCCCC2)c1)N1CCN(c2ccccc2F)CC1 | % | 2.31 |
| COc1ccc(NC(=O)c2cc(-c3ccccc3)oc2C)cc1 | % | 8.42 |
| COc1ccc(/C=N/NC(=O)c2cccc(C(=O)N/N=C/c3ccc(OC)c(OC)c3)n2)cc1OC | % | 5.53 |
| Cc1ccc(-c2cc(C(=O)N/N=C/c3c(C)nn(-c4ccccc4)c3C)n[nH]2)s1 | % | 3.04 |
| C[C@H](CO)N1C[C@H](C)[C@@H](CN(C)C(=O)c2ccccc2)OCc2cnnn2CCCC1=O | % | 16.3 |
| Cc1cc(C)c2[nH]c(=O)c(CN(CC3CCCO3)S(=O)(=O)c3ccc4c(c3)OCCO4)cc2c1 (configuration not stated) | % | -7.75 |
| COc1ccc(N(C(=O)c2ccncc2)S(=O)(=O)c2cccs2)cc1 | % | 5.29 |
| CCOC(=O)N/N=C/c1ccc(OC)c(O)c1 | % | 18.6 |
